Target: T1, recombinant human A1/Bfl-1 (residues 1 to 151) (human, UniProt Q16548 1-151)
T1 sequence (looked up): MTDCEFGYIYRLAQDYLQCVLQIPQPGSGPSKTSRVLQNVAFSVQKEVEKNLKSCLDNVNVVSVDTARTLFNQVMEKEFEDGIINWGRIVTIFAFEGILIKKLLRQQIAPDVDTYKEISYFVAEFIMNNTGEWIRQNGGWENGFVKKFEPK
Assay: ITC
property_name: Kd (nM)

[A] IEPTSPTIQVARTIRQIGDELDSDPHLN [trBax BH3 peptide]
[B] PSSPTSEIGRHLAQLGDSYSVRFQNE [trBak BH3 peptide]
Please indicate which item has the smaller measured Kd: A versus B Lab note: record the label of whichever item you select.
B
